Test: in vivo
Settings: male, C57BL/6, mouse, inhaled or intranasal, 30 mg/kg
measureName: Cmax (ng/mL)
Give a bare numeral; the unit ng/mL is implied.

# lookup: Cmax of COc1cc(C(=O)O[C@@H]2Cc3c(O)cc(O)cc3O[C@H]2c2cc(O)c(O)c(O)c2)c(F)c(O)c1O
3140

----------
Exercise: for every item that follows, state its recorded IC50.
Target: DYRK1A (HT-497, 6×His tagged rat truncated DYRK1A isoform X1 residues 1-497) (Rattus norvegicus (Rat))
Test: DYRK1A ELISA assay (HT-PRD phosphorylation)
Details: 100 µM ATP, 5 ng HT-497, 30 min at 30° C.

# lookup: IC50 of O=C(N[C@H]1Cc2c(O)cc(O)cc2O[C@@H]1c1cc(O)c(O)c(O)c1)c1ccc(F)c(F)c1
> 1 µM

# lookup: IC50 of CC(C)Oc1c(O)c(O)c(F)c(C(=O)O[C@@H]2Cc3c(O)cc(O)cc3O[C@H]2c2cc(O)c(O)c(O)c2)c1F
> 0.1 µM

# lookup: IC50 of O=C(O[C@@H]1Cc2c(O)cc(O)cc2O[C@H]1c1cc(O)c(O)c(O)c1)c1ccc(O)c(O)c1O
> 0.1 µM

# lookup: IC50 of O=C(O[C@@H]1Cc2c(O)cc(O)cc2O[C@H]1c1ccc(O)c(O)c1)c1ccc(O)c(O)c1
> 0.1 µM

Cited source for all entries: patent US20240336588A1
